# ASSAY SYSTEM: hCA IX (Homo sapiens, UniProt Q16790)
pIC50: −log10 of the molar value.
ENDPOINT NAME: pIC50

// solved cases for pIC50 follow
>  <MOLECULE>
Cn1c(N)c(/N=C/c2cc3ccccc3[nH]c2=O)c(=O)[nH]c1=O [Compound 10d]

>  <ASSAY SYSTEM>
hCA IX (Homo sapiens, UniProt Q16790)

>  <NUMERIC VALUE>
6.66

$$$$
>  <MOLECULE>
CCn1c(N)c(/N=C/c2cc3cccc(C)c3[nH]c2=O)c(=O)[nH]c1=O [Compound 10f]

>  <ASSAY SYSTEM>
hCA IX (Homo sapiens, UniProt Q16790)

>  <NUMERIC VALUE>
6.57

$$$$
>  <MOLECULE>
Cn1c(N)c(/N=C/c2cc3ccccc3[nH]c2=O)c(=O)[nH]c1=S [Compound 10e]

>  <ASSAY SYSTEM>
hCA IX (Homo sapiens, UniProt Q16790)

>  <NUMERIC VALUE>
5.86

$$$$
>  <MOLECULE>
CCn1c(N)c(/N=C/c2cc3cc(OC)ccc3[nH]c2=O)c(=O)[nH]c1=O [Compound 10j]

>  <ASSAY SYSTEM>
hCA IX (Homo sapiens, UniProt Q16790)

>  <NUMERIC VALUE>
6.06

$$$$

I. CCn1c(N)c(/N=C/c2cc3ccccc3[nH]c2=O)c(=O)[nH]c1=O [Compound 10c]
II. COc1ccc2[nH]c(=O)c(/C=N/c3c(N)n(C)c(=S)[nH]c3=O)cc2c1 [Compound 10l]
III. Nc1c(/N=C/c2cc3ccccc3[nH]c2=O)c(=O)[nH]c(=O)n1Cc1ccccc1 [Compound 10b]
IV. Cc1cccc2cc(/C=N/c3c(N)n(C)c(=S)[nH]c3=O)c(=O)[nH]c12 [Compound 10g]
Please put the entries in order of rising pIC50. Order the labels as requested and list them. IV, III, I, II

* * *

# ASSAY SYSTEM: hCA XII (Homo sapiens, UniProt O43570)
# Sequence (O43570 25-354): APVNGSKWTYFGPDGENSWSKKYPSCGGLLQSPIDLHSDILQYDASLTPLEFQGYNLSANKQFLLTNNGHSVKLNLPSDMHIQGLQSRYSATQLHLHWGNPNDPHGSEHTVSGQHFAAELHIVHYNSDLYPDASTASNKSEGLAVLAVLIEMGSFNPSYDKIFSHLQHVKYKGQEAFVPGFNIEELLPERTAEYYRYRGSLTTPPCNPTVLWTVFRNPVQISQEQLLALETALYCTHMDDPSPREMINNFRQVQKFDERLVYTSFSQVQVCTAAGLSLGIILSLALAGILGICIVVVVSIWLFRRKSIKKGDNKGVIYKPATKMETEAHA
# EXPERIMENTAL DETAILS: Carbonic anhydrase inhibition, colorimetric method (BioVision CA Inhibitor Screening Kit)
# CONDITION SET: hCA XII over hCA II
ENDPOINT NAME: Selectivity index II/XII

// solved cases for Selectivity index II/XII follow
>  <COMPOUND>
CCn1c(N)c(/N=C/c2cc3cccc(C)c3[nH]c2=O)c(=O)[nH]c1=O [Compound 10f]

>  <ASSAY SYSTEM>
hCA XII (Homo sapiens, UniProt O43570)

>  <Selectivity index II/XII>
4.72

$$$$
>  <COMPOUND>
Cn1c(N)c(/N=C/c2cc3ccccc3[nH]c2=O)c(=O)[nH]c1=S [Compound 10e]

>  <ASSAY SYSTEM>
hCA XII (Homo sapiens, UniProt O43570)

>  <Selectivity index II/XII>
2.06

$$$$

A. Nc1[nH]c(=O)[nH]c(=O)c1/N=C/c1cc2ccccc2[nH]c1=O [Compound 10a]
B. COc1ccc2[nH]c(=O)c(/C=N/c3c(N)[nH]c(=O)[nH]c3=O)cc2c1 [Compound 10h]
I would appreciate it if you could say which entry, A or B , has the lower Selectivity index II/XII value. Kindly state the label of the option you pick. A
(A: 1.65, B: 11.16)

These entries and their values trace back to paper PMC9146896.
